Listed molecules paired with reported EC50
molecular target: CFTR in G551D/F508del primary CF hBE cells (Homo sapiens, UniProt P13569, G551D); construct: Primary cystic fibrosis human bronchial epithelial (CF hBE) cells were expanded and cultured; endogenous in cells; experiment: Ussing chamber electrophysiology assay of CFTR potentiation in G551D/F508del CF bronchial epithelial cells (35° C.); details: G551 D/F508del Ussing chamber assay at 35 degrees Celsius
Sequence (P13569 whole entry F508del/G551D): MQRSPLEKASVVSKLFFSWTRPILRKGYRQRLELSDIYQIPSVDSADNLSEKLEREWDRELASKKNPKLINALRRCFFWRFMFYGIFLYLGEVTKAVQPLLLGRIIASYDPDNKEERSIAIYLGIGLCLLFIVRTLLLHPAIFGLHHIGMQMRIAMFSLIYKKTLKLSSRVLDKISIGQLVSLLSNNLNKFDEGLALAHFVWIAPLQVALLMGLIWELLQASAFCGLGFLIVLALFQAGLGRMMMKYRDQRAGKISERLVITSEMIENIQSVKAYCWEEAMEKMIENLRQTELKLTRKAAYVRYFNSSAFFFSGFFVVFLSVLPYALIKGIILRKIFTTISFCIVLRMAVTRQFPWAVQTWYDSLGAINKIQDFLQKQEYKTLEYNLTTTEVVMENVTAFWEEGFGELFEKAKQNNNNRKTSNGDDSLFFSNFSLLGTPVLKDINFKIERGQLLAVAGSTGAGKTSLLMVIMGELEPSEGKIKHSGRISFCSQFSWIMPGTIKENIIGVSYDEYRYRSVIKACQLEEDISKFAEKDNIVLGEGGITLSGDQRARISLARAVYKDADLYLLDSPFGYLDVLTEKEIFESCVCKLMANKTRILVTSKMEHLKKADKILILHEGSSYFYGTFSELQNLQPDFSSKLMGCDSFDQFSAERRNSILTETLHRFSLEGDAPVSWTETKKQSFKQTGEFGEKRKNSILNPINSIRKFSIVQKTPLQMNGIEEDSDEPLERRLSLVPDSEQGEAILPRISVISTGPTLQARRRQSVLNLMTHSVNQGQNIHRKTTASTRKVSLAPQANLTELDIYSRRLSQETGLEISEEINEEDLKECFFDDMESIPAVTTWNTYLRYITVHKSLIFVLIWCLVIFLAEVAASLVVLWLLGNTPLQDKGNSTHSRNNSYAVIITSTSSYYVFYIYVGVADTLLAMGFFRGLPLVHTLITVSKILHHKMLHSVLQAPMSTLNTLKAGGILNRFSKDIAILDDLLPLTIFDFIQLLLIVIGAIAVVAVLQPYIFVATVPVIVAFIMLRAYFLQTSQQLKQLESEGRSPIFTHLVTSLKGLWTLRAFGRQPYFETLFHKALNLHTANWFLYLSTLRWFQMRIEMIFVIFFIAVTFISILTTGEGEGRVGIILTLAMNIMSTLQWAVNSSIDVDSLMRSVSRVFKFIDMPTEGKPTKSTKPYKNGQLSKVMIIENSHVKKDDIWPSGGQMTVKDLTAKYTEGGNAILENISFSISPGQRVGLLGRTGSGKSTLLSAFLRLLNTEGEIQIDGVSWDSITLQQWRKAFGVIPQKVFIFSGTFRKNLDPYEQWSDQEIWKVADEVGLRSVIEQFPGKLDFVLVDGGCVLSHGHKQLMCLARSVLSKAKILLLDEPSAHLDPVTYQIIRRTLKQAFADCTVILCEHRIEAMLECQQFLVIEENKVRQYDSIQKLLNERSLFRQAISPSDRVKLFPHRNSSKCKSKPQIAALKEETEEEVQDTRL
METRIC: EC50 (nM)

{"columns": ["MOLECULE", "NUMERIC VALUE"],
 "data": [
  ["CCC(c1cn(-c2ccccc2F)nn1)n1cc(-c2cncnc2OC)c2c(N)ncnc21 (single isomer, unassigned; enantiomer 2)", 826],
  ["CC[C@H](c1cn(-c2ccc(F)cc2F)nn1)n1cc(-c2cnc(C(F)(F)F)nc2)c2c(N)ncnc21 (single isomer, unassigned)", 8450],
  ["CC[C@@H](c1cn(-c2ccc(F)cc2F)nn1)n1cc(-c2cnc(C(F)(F)F)nc2)c2c(N)ncnc21 (single isomer, unassigned)", 303]
]}

----------
target: recombinant F508del V470 CFTR in Fischer rat thyroid (FRT) cells (Homo sapiens, UniProt P13569, DEL508-508); assay: FRT ion flux assay of F508del CFTR potentiation; details: FRT cells expressing F508del V470 CFTR, forskolin 20 uM, 27° C. pre-incubation
Sequence (P13569 with tags, fused parts or gaps DEL508-508): as the sequence (P13569 whole entry F508del/G551D) above, with D550G counted along it
METRIC: EC50 (nM)

{"columns": ["COMPOUND", "METRIC", "UNIT ANNOTATION", "NUMERIC VALUE"],
 "data": [
  ["CCC(c1cn(-c2cccc(F)c2F)nn1)n1cc(-c2cncnc2OC)c2c(N)ncnc21 (single isomer, unassigned; enantiomer 1) [Example 305]", "EC50", "nM", 545],
  ["COc1nc(C(F)(F)F)ncc1-c1cn(C(C)c2cn(-c3ccccc3F)nn2)c2ncnc(N)c12 (stereo not drawn)", "EC50", "nM", 12.2],
  ["CCC(c1c[nH]c(-c2ccc(F)cc2F)n1)n1cc(-c2cnc(C(F)(F)F)nc2)c2c(N)ncnc21 (single isomer, unassigned; enantiomer 1) [Example 177]", "EC50", "nM", 21.6],
  ["CCC(c1cn(-c2ccccc2F)nn1)n1cc(C2CC2)c2c(N)ncnc21 (single isomer, unassigned; enantiomer 1) [Example 173]", "EC50", "nM", 29.3],
  ["COc1ncc(F)cc1-c1cn(Cc2cn(-c3ccccc3F)nn2)c2ncnc(N)c12", "EC50", "nM", 63.6],
  ["COc1ncncc1-c1cn(C(c2cn(-c3ccccc3F)nn2)C2COC2)c2ncnc(N)c12 (stereo not drawn)", "EC50", "nM", 933]
]}

----------
// reported pEC50 per item
Molecular target: recombinant F508del V470 CFTR in Fischer rat thyroid (FRT) cells (Homo sapiens, UniProt P13569, DEL508-508)
Assay: FRT ion flux assay of F508del CFTR potentiation
Conditions: FRT cells expressing F508del V470 CFTR, forskolin 20 uM, 27° C. pre-incubation
Procedure: FRT Ion Flux Assay of F508del CFTR Potentiation Fischer rat thyroid (FRT) cell lines stably expressing recombinant F508del V470 CFTR and halide-sensitive yellow fluorescent protein (Pedemonte et al., J. Clin. Invest. 115(9) 2564-71 (2005)) were seeded at 25,000 cells/well in 50 uL/well of culture medium into black-walled, clear bottom tissue-culture-treated 384-well plates (Corning, cat. no. 3712). […] Plates were loaded into FLIPR384 fluorescence imaging plate reader (Molecular Devices). […]
pEC50: −log10 of the molar value.

{"columns": ["COMPOUND", "pEC50"],
 "data": [
  ["CCC(c1cn(-c2ccc(F)c(F)c2)nn1)n1cc(-c2cnc(C(F)(F)F)nc2)c2c(N)ncnc21 (single isomer, unassigned; enantiomer 1) [Example 153]", 7.23],
  ["CCC(c1cn(-c2ccc(F)c(F)c2)nn1)n1cc(-c2cncnc2OC)c2c(N)ncnc21 (single isomer, unassigned; enantiomer 1) [Example 151]", 7.47],
  ["CC(c1cn(-c2ccc(F)cc2F)nn1)n1c(C#N)c(-c2ccc(OC3CC3)nc2)c2c(N)ncnc21 (single isomer, unassigned; enantiomer 1) [Example 320]", 6.92],
  ["Nc1ncnc2c1c(-c1ccc(OC(F)F)cc1)cn2Cc1cn(-c2ccccc2F)nn1", 7.14],
  ["CC(c1cnc(-c2ccccc2F)[nH]1)n1cc(-c2ccc3[nH]ncc3c2)c2c(N)ncnc21 (stereo not drawn)", 6.24],
  ["Nc1ncnc2c1c(-c1ccc(Cl)cc1)cn2Cc1cn(-c2ccccc2F)cn1", 5.41],
  ["CC(c1cn(-c2ccccc2F)nn1)n1cc(-c2cnc(C(F)(F)F)nc2)c2c(N)ncnc21 (stereo not drawn)", 7.60],
  ["CCC(c1cn(-c2ccccc2F)nn1)n1cc(-c2cc(F)cnc2OC)c2c(N)ncnc21 (stereo not drawn) [Example 223]", 7.95],
  ["COc1cnc(-c2cn(C(C)c3cc(-c4ccccc4F)no3)c3ncnc(N)c23)cn1 (stereo not drawn)", 6.04],
  ["CC(C)(c1cn(-c2ccccc2F)nn1)n1cc(-c2ccc(Cl)cc2)c2c(N)ncnc21", 6.47],
  ["CCC(c1cn(-c2cc(F)ccc2F)nn1)n1cc(-c2cnc(C(F)(F)F)nc2)c2c(N)ncnc21 (single isomer, unassigned) [Example 186]", 6.20],
  ["Cc1cccc(-n2cc(C(C)n3cc(-c4ccc(Cl)cc4)c4c(N)ncnc43)nn2)c1 (stereo not drawn)", 6.39],
  ["CC(c1cn(-c2ccccc2F)nn1)n1cc(-c2ccc(OC(F)F)cc2)c2c(N)ncnc21 (stereo not drawn)", 7.13],
  ["CC(c1cn(-c2ccccc2F)nn1)n1cc(-c2cc(F)cc(Cl)c2)c2c(N)ncnc21 (stereo not drawn)", 7.30],
  ["COc1ccccc1-c1cc(C(C)n2cc(-c3ccc(Cl)cc3)c3c(N)ncnc32)on1 (stereo not drawn)", 6.70],
  ["Cc1c(-c2ccc(Cl)cc2)c2c(N)ncnc2n1C(C)c1cc(-c2ccccc2F)no1 (stereo not drawn)", 6.69],
  ["COc1ncccc1-c1cn(Cc2nnc(-c3ccccc3F)[nH]2)c2ncnc(N)c12", 6.14],
  ["CC(c1cnc(-c2ccccc2F)[nH]1)n1cc(-c2cccc3ccncc23)c2c(N)ncnc21 (stereo not drawn)", 5.83],
  ["CC(c1cn(-c2ccccc2F)nn1)n1cc(C2CCC2)c2c(N)ncnc21 (single isomer, unassigned; enantiomer 1) [Example 294]", 6.78],
  ["Nc1ncnc2c1c(-c1ccc(Cl)cc1)cn2Cc1cc(C2CCCCC2)no1", 6.32],
  ["CC(c1cnc(-c2ccccc2F)[nH]1)n1cc(-c2cc[nH]n2)c2c(N)ncnc21 (stereo not drawn)", 7.34],
  ["CCC(c1c[nH]c(-c2ccc(F)cc2F)n1)n1cc(-c2cnc(C(F)(F)F)nc2)c2c(N)ncnc21 (single isomer, unassigned; enantiomer 2) [Example 178]", 6.07],
  ["CCC(c1cnn(-c2ccc(F)cc2F)c1)n1c(C#N)c(-c2cnc(C(F)(F)F)nc2)c2c(N)ncnc21 (single isomer, unassigned) [Example 21]", 9.06],
  ["COc1ncc(-c2c(C#N)n(C(C)c3cc(-c4ccccc4F)no3)c3ncnc(N)c23)cn1 (single isomer, unassigned) [Example 14]", 7.63],
  ["CCC(c1cn(-c2ccc(F)cc2F)nn1)n1cc(-c2cnc(OC)c(F)c2)c2c(N)ncnc21 (single isomer, unassigned; enantiomer 1) [Example 165]", 6.14],
  ["CC(c1cnc(-c2ccccc2F)[nH]1)n1cc(-c2cn[nH]c2)c2c(N)ncnc21 (stereo not drawn)", 6.89],
  ["CCC(c1cn(-c2ccc(F)cc2)nn1)n1cc(-c2cncnc2OC)c2c(N)ncnc21 (single isomer, unassigned; enantiomer 2) [Example 150]", 6.53],
  ["Nc1ncnc2c1c(-c1ccc(Cl)cc1)cn2Cc1cc(C2CC2)no1", 5.57],
  ["Nc1ncnc2c1c(-c1cnc(C(F)(F)F)nc1)cn2Cc1cnn(-c2ccccc2F)c1", 7.54],
  ["CCC(c1cn(-c2cccc(F)c2F)nn1)n1cc(-c2cnc(C(F)(F)F)nc2)c2c(N)ncnc21 (single isomer, unassigned) [Example 188]", 6.26]
]}

----------
target: recombinant F508del V470 CFTR in Fischer rat thyroid (FRT) cells (Homo sapiens, UniProt P13569, DEL508-508); assay: FRT ion flux assay of F508del CFTR potentiation; settings: FRT cells expressing F508del V470 CFTR, forskolin 20 uM, 27° C. pre-incubation

{"columns": ["COMPOUND", "EC50"],
 "data": [
  ["CC(c1cnc(-c2ccccc2F)[nH]1)n1cc(-c2ccc3c(c2)OCC(=O)N3)c2c(N)ncnc21 (stereo not shown) [Example 65]", "1420 nM"],
  ["Cc1c(C(C)n2cc(-c3cnc(C(F)(F)F)nc3)c3c(N)ncnc32)nnn1-c1ccccc1F (single isomer, unassigned; enantiomer 1) [Example 179]", "9.97 nM"],
  ["Nc1ncnc2c1c(-c1ccc(Cl)cc1)cn2Cc1cnc(-c2ccccc2F)[nH]1 [Example 263]", "199 nM"],
  ["COc1ncccc1-c1cn(C(C)c2cn(-c3ccccc3F)nn2)c2ncnc(N)c12 (stereo not shown) [Example 215]", "79.3 nM"],
  ["CC(C)n1cc(Cn2c(C#N)c(-c3ccc(Cl)cc3)c3c(N)ncnc32)cn1 [Example 25]", "95.9 nM"],
  ["CC(c1cnc(-c2ccccc2F)[nH]1)n1cc(-c2ccc(-n3nccn3)cc2)c2c(N)ncnc21 (stereo not shown) [Example 70]", "110 nM"],
  ["CCC(c1cn(-c2ccc(F)c(F)c2)nn1)n1cc(-c2cnc(C(F)F)nc2)c2c(N)ncnc21 (single isomer, unassigned; enantiomer 2) [Example 313]", "74.9 nM"]
]}
